Every entry's value here was drawn from PubChem BioAssay AID2252.

Tested on: THP-1 viability, CellTiter-Glo luminescence, 72 h
Assay: PubChem AID 2252
pEC50: −log10 of the molar value.
Let's look at some compounds and their measured pEC50.

Cn1c(N/N=C/c2c[nH]c3ccccc23)nc2ccccc21	5.09
Oc1ccc(C=Nc2ccc3ncccc3c2)c(O)c1	4.78
Oc1c(Br)cc(Br)cc1C=Nc1cccc2ncccc12	4.89
O=C(N/N=C/c1cc(Br)cc(Br)c1O)c1ccncc1	5.40
CCCCOc1ccc(NC2=NC3(CCCC3)N=C(N)N2)cc1	4.76

Which pEC50 value belongs to CCN1c2ccccc2NC2N=C(OC)C(c3ccccc3)C21 (stereo not given) ?
4.79

Which pEC50 value belongs to "O=CN/N=C/c1c(O)ccc2ccccc12" ?
5.29

Which pEC50 value belongs to "O=C1C(Cl)=C(NCc2cccnc2)C(=O)c2ccccc21" ?
4.90

Which pEC50 value belongs to "Cc1cc(OCCCCCN2CCCC2)ccc1Cl" ?
4.31
